Below: a set of entries, each annotated with reported solubility.
test system: PBS pH 7.4 solubility, LC-UV/MS, 1 h shake; assay: qHTS Assay for Agonists of the Relaxin Receptor RXFP1: PBS Solubility; conditions: stronger effect = higher value
Records with an inconclusive call do not appear.

{"columns": ["Input Smiles", "solubility"],
 "data": [
  ["CCOc1ccccc1C(=O)Nc1ccccc1C(=O)Nc1cccc(S(=O)(=O)C(F)(F)F)c1", "1.1 µM"],
  ["CCCCOc1ccccc1C(=O)Nc1ccccc1C(=O)Nc1cccc(S(=O)(=O)C(F)(F)F)c1", "5.3 µM"],
  ["CC(C)Oc1ccccc1C(=O)Nc1ccccc1C(=O)Nc1cccc(S(=O)(=O)C(F)(F)F)c1", "7 µM"],
  ["CCOc1ccccc1C(=O)Nc1ccccc1C(=O)Nc1cccc(C(F)(F)F)c1", "1.7 µM"],
  ["COc1ccccc1C(=O)Nc1ccccc1C(=O)Nc1cccc(SC(F)(F)F)c1", "2.9 µM"]
]}
